meta.source: patent US12037344B2

Molecular target: TLR8 (Homo sapiens)
Construct: human HEK-Blue cells co-expressing a TLR7 or TLR8 gene
Sequence (Q9NR97 27-1041): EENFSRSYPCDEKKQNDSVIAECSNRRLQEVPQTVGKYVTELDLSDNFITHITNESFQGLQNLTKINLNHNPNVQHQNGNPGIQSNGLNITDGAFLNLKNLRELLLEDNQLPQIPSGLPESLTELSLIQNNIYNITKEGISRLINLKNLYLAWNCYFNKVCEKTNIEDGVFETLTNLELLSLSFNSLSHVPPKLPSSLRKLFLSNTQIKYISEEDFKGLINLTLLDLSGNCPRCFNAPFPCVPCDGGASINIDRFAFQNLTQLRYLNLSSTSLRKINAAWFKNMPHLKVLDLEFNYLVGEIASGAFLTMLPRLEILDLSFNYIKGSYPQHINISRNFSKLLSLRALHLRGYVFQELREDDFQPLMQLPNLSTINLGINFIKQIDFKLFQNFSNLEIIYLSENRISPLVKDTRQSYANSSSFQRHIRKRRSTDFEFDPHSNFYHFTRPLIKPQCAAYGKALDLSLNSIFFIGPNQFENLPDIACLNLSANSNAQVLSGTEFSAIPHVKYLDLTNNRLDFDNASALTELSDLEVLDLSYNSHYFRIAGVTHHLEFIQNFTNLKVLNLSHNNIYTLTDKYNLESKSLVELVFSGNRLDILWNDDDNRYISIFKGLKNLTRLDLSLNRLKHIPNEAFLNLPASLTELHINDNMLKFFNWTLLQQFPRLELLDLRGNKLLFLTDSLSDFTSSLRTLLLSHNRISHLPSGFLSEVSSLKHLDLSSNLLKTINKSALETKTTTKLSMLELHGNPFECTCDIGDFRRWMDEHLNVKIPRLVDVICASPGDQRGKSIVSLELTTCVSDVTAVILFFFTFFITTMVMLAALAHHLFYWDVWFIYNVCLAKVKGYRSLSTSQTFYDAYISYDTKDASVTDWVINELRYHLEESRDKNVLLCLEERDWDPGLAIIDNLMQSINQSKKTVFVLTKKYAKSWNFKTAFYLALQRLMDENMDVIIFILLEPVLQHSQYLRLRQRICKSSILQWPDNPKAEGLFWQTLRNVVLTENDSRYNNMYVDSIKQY
Experiment: In vitro human TLR8 binding reporter assay (HEK-Blue, NF-kB/AP1-inducible SEAP)
Type: cell-based
Conditions: activity range class, read-out: TLR8 Agonist EC50
pEC50: −log10 of the molar value.
Quantity Measured: pEC50

>>> endpoint_value("Nc1nc2cc(-c3cc[nH]n3)ccc2c2nn(CC(O)CC(F)(F)F)cc12 (single isomer, unassigned) [Example 379]")
"< 4.00"
>>> endpoint_value("Nc1nc2cc(-c3cc[nH]n3)ccc2c2nn(CCCCO)cc12")
"< 4.00"
>>> endpoint_value("CCN(CCn1cc2c(N)nc3cc(-c4ccn[nH]4)ccc3c2n1)C(C)=O")
"< 4.00"
>>> endpoint_value("Nc1nc2cc(-c3cc[nH]n3)ccc2c2cn(CCCOc3ccc(F)cc3)nc12")
"< 4.00"
>>> endpoint_value("Nc1nc2cc(-c3cc[nH]n3)ccc2c2cn(CCNC(=O)c3cnc4ccccn4c3=O)nc12")
"< 4.00"
>>> endpoint_value("COC1CCCN(CCn2cc3c(N)nc4cc(-c5ccn[nH]5)ccc4c3n2)C1 (stereo not shown)")
"< 4.00"
>>> endpoint_value("NCCn1cc2c(N)nc3cc(-c4cc[nH]n4)ccc3c2n1")
"< 4.00"
>>> endpoint_value("Nc1nc2cc(-n3cccn3)ccc2c2cn(Cc3ccccn3)nc12")
"4.00 to 4.70"
>>> endpoint_value("COCCn1cc2c(N)nc3cc(-c4cc[nH]n4)ccc3c2n1")
"< 4.00"
>>> endpoint_value("CC(C)(N)Cn1cc2c(N)nc3cc(-c4ccn[nH]4)ccc3c2n1")
"< 4.00"
>>> endpoint_value("Nc1nc2cc(-n3cccn3)ccc2c2cn(CCN3CCCC3=O)nc12")
"< 4.00"
>>> endpoint_value("Nc1nc2cc(-c3cc[nH]n3)ccc2c2cn(CCNC(=O)c3ccc(OC(F)(F)F)cn3)nc12")
"< 4.00"
>>> endpoint_value("Nc1nc2cc(-c3ccn[nH]3)ccc2c2nn(CCNC(=O)c3ccc(F)cn3)nc12")
"< 4.00"
>>> endpoint_value("COc1ccc(CC(=O)NCCn2cc3c(n2)c(N)nc2cc(-c4cc[nH]n4)ccc23)cc1")
"< 4.00"
>>> endpoint_value("Cc1ccccc1CNCCn1cc2c(n1)c(N)nc1cc(-c3cc[nH]n3)ccc12")
"< 4.00"
>>> endpoint_value("CCOCCn1cc2c(n1)c(N)nc1cc(-c3ccn[nH]3)ccc12")
"< 4.00"
>>> endpoint_value("Nc1nc2cc(-c3cc[nH]n3)ccc2c2cn(CCNC(=O)c3cccc(F)c3)nc12")
"< 4.00"
>>> endpoint_value("CN(C)CCn1nc2c(N)nc3cc(-c4ccn[nH]4)ccc3c2n1")
"< 4.00"
>>> endpoint_value("COC1CCN(CCn2cc3c(N)nc4cc(-c5ccn[nH]5)ccc4c3n2)C1 (stereo not shown)")
"< 4.00"
>>> endpoint_value("CS(=O)(=O)CCCn1ncc2c(N)nc3cc(-c4cc[nH]n4)ccc3c21")
"< 4.00"
>>> endpoint_value("Nc1nc2cc(-n3cccn3)ccc2c2nn(CC(F)F)cc12")
"< 4.00"
>>> endpoint_value("Nc1nc2cc(-c3cc[nH]n3)ccc2c2cn(CCN3CCOCC3)nc12")
"< 4.00"
>>> endpoint_value("CC(N)Cn1cc2c(N)nc3cc(-c4ccn[nH]4)ccc3c2n1 (stereo not shown)")
"< 4.00"
>>> endpoint_value("Nc1nc2cc(-c3cc[nH]n3)ccc2c2nn(CCc3c[nH]cn3)cc12")
"< 4.00"
>>> endpoint_value("CC(=O)N1CCOCC1Cn1cc2c(N)nc3cc(-c4ccn[nH]4)ccc3c2n1 (stereo not shown)")
"< 4.00"
>>> endpoint_value("Nc1nc2cc(-c3cc[nH]n3)ccc2c2nn(CCC(F)F)cc12")
"< 4.00"
>>> endpoint_value("CC(C)(Cn1cc2c(N)nc3cc(-c4ccn[nH]4)ccc3c2n1)NC(=O)C1CCCO1 (stereo not shown)")
"< 4.00"
>>> endpoint_value("Nc1nc2cc(-c3cc[nH]n3)ccc2c2cn(CCNC(=O)C3CCCCO3)nc12 (stereo not shown)")
"< 4.00"
>>> endpoint_value("Nc1nc2cc(-c3cc[nH]n3)ccc2c2nn(C3CCCCC3O)cc12 (single isomer, unassigned) [Example 318]")
"< 4.00"
>>> endpoint_value("Nc1nc2cc(-c3cc[nH]n3)ccc2c2cn(CCNC(=O)c3cccc(Cl)n3)nc12")
"< 4.00"
>>> endpoint_value("Nc1nc2cc(-c3cc[nH]n3)ccc2c2nn(CC(O)CF)cc12 (single isomer, unassigned) [Example 377]")
"< 4.00"
>>> endpoint_value("COCCn1cc2c(N)nc3cc(-c4cccs4)ccc3c2n1")
"< 4.00"
>>> endpoint_value("CC(Cn1cc2c(N)nc3cc(-c4ccn[nH]4)ccc3c2n1)NC(=O)C(C)(C)F (stereo not shown)")
"< 4.00"
>>> endpoint_value("COc1ccc(C(=O)NCCn2cc3c(n2)c(N)nc2cc(-c4cc[nH]n4)ccc23)nc1")
"< 4.00"
